assay-explanation: optical density change of DRC41 E. coli – strain DRC41, OD650, 24 h, E. coli filamentation project, primary screen (AID 1093);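 also: MC1000 strain lacking acrAB efflux and sulA so SOS filamentation is blocked; test concentration not given here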
experimental-context: E. coli DRC41 growth, higher = more signal, called active from +8 up or from −8 down
z-score vs -0.03: at or above is Y, below is N.

Solved entries:
COC(=O)c1c(CC[C@@H](CO)NC(=O)N[C@@H](Cc2ccccc2)Cn2cc(-c3ccccn3)nn2)oc(C(=O)N2CCOCC2)c1C(=O)OC = N
C[N+](C)(C)CCCC[C@@H]1NC(=O)[C@@H]2C[C@H](C(=O)NCCCCCCNC(=O)CS)[C@H](c3ccc(O)cc3)N2C1=O = N
COCC(=C=CC[C@H](O)c1ccccc1OCCO)CCO = Y
O=C(NC1CC1)[C@@H]1c2ccccc2C(=O)N(C2Cc3ccccc3C2)[C@H]1c1ccc(CO)cc1 = Y
O=C1[C@H]2C=C(I)[C@H](C[C@@H]2OCCCCO)[C@@]12CO2 = N
CO[C@H]1O[C@H](CO)[C@@H](OC(=O)Nc2ccc(Oc3ccccc3)cc2)[C@H](OC(=O)Nc2ccc3c(c2)OCO3)[C@@H]1OC(=O)Nc1ccc2c(c1)OCO2 = Y

Alright, here's another molecule for you.
Incoming: Quick check: does `CCOC(=O)C[C@H]1[C@H](OC(=O)c2cc3ccccc3oc2=O)[C@@H](NC(=O)CC(C)C)c2cc(OCCCO)ccc2N1C(=O)c1ccccc1` have z-score greater than or equal to -0.03?
Outgoing: Y

Cited source: PubChem BioAssay
